B1: Tetratricopeptide repeat protein 4 (Homo sapiens), O95801 (parent)
chain: MEQPGQDPTSDDVMDSFLEKFQSQPYRGGFHEDQWEKEFEKVPLFMSRAPSEIDPRENPDLACLQSIIFDEERSPEEQAKTYKDEGNDYFKEKDYKKAVISYTEGLKKKCADPDLNAVLYTNRAAAQYYLGNFRSALNDVTAARKLKPCHLKAIIRGALCHLELKHFAEAVNWCDEGLQIDAKEKKLLEMRAKADKLKRIEQRDVRKANLKEKKERNQNEALLQAIKARNIRLSEAACEDEDSASEGLGELFLDGLSTENPHGARLSLDGQGRLSWPVLFLYPEYAQSDFISAFHEDSRFIDHLMVMFGETPSWDLEQKYCPDNLEVYFEDEDRAELYRVPAKSTLLQVLQHQRYFVKALTPAFLVCVGSSPFCKNFLRGRKVYQIR
partner: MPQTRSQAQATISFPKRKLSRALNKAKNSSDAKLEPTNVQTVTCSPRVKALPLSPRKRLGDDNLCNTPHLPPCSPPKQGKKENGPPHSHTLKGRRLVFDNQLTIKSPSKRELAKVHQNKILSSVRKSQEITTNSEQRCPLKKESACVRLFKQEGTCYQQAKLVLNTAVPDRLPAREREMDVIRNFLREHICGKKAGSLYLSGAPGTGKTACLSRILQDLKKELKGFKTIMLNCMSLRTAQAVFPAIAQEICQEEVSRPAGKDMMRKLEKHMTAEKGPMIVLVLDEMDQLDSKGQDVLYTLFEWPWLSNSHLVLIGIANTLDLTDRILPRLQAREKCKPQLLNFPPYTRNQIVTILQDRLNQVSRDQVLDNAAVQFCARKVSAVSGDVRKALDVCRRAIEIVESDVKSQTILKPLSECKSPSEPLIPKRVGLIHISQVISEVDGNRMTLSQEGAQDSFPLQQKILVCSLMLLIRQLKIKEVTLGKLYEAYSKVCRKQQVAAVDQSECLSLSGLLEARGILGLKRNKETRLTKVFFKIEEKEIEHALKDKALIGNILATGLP

variants of: B1; settings: with cdc6_human CDC6, Q99741

| variant_descriptor | effect of a mutation on the interaction |
| --- | --- |
| V42D | with no effect |
| I67M | with no effect |

Reference source for all entries: IntAct's records for PubMed 18320024
